conditions: in DMSO, 313.15 K
OBSERVATION TYPE: solubility (mole fraction)
Give the figure by itself; no unit, no explanation.

Prompt: Dear colleague, I am looking for the recorded solubility (mole fraction) of the following compound: NC[C@H]1O[C@H](O[C@H]2[C@H](O)[C@@H](O[C@H]3O[C@H](CO)[C@@H](O)[C@H](N)[C@H]3O)[C@H](N)C[C@@H]2N)[C@H](N)C[C@@H]1O
Completion: 0.0282

----------
conditions: in methanol, 303.15 K
OBSERVATION TYPE: solubility (mole fraction)
Give the figure by itself; no unit, no explanation.

Prompt: Dear colleague, I am looking for the recorded solubility (mole fraction) of the following molecule: NC[C@H]1O[C@H](O[C@H]2[C@H](O)[C@@H](O[C@H]3O[C@H](CO)[C@@H](O)[C@H](N)[C@H]3O)[C@H](N)C[C@@H]2N)[C@H](N)C[C@@H]1O
Completion: 0.000284

----------
conditions: in DMSO, 318.15 K
OBSERVATION TYPE: solubility (mole fraction)
Give the figure by itself; no unit, no explanation.

Prompt: Dear colleague, I am looking for the recorded solubility (mole fraction) of the following compound: NC[C@H]1O[C@H](O[C@H]2[C@H](O)[C@@H](O[C@H]3O[C@H](CO)[C@@H](O)[C@H](N)[C@H]3O)[C@H](N)C[C@@H]2N)[C@H](N)C[C@@H]1O
Completion: 0.0351

----------
settings: in DMF, 303.15 K
OBSERVATION TYPE: solubility (mole fraction)

Prompt: Dear colleague, I am looking for the recorded solubility (mole fraction) of the following compound: NC[C@H]1O[C@H](O[C@H]2[C@H](O)[C@@H](O[C@H]3O[C@H](CO)[C@@H](O)[C@H](N)[C@H]3O)[C@H](N)C[C@@H]2N)[C@H](N)C[C@@H]1O
Completion: 0.000249

----------
details: in ethanol, 283.15 K
OBSERVATION TYPE: solubility (mole fraction)
Give the figure by itself; no unit, no explanation.

Prompt: Dear colleague, I am looking for the recorded solubility (mole fraction) of the following molecule: NC[C@H]1O[C@H](O[C@H]2[C@H](O)[C@@H](O[C@H]3O[C@H](CO)[C@@H](O)[C@H](N)[C@H]3O)[C@H](N)C[C@@H]2N)[C@H](N)C[C@@H]1O
Completion: 0.000436

----------
conditions: in methanol, 298.15 K
OBSERVATION TYPE: solubility (mole fraction)

Prompt: Dear colleague, I am looking for the recorded solubility (mole fraction) of the following compound: NC[C@H]1O[C@H](O[C@H]2[C@H](O)[C@@H](O[C@H]3O[C@H](CO)[C@@H](O)[C@H](N)[C@H]3O)[C@H](N)C[C@@H]2N)[C@H](N)C[C@@H]1O
Completion: 0.000189

----------
details: in ethanol, 288.15 K
OBSERVATION TYPE: solubility (mole fraction)
Give the figure by itself; no unit, no explanation.

Prompt: Dear colleague, I am looking for the recorded solubility (mole fraction) of the following molecule: NC[C@H]1O[C@H](O[C@H]2[C@H](O)[C@@H](O[C@H]3O[C@H](CO)[C@@H](O)[C@H](N)[C@H]3O)[C@H](N)C[C@@H]2N)[C@H](N)C[C@@H]1O
Completion: 0.000556
